- systemName: recombinant GTase A320 (Arabidopsis thaliana)
- Construct: made in house; host or cells: E. coli
- assayComment: Specific activity of recombinant GTase producing glucose ester against lignin precursors (HPLC)
- Type: biochemical
- assayConditions: 5 mM UDPG, 0.2 μg GTase, 200 μl, 20° C., 30 min
property: Specific activity of A320 (substrate converted to glucose ester) (nkat/mg)

{"columns": ["compound", "quantitativeResult"],
 "data": [
  ["COc1cc(/C=C/C(=O)O)ccc1O [Ferulic acid, ferulic acid]", 0.54],
  ["O=C(O)/C=C/c1ccc(O)cc1 [p-coumaric acid]", 0.05],
  ["O=C(O)C=Cc1ccc(O)c(O)c1 [Caffeic acid, 3,4-dihydroxycinnamic acid]", 0.05],
  ["O=C(O)C=Cc1ccccc1 [Cinnamic acid, cinnamic acid]", 0.06]
]}
